Where do the numbers come from? From patent US20230263822A1.

# Bilirubin per entry
- RUN PARAMETERS: rat, in vivo, sc, 50 mg/kg
e = 2'-O-(2-methoxyethyl) (MOE); d = 2'-deoxy (DNA)
Numbers only here, please. The scale is mg/dL.

Answered examples (8):
>  <SUBSTANCE>
ISIS 412225: 5-10-5 MOE gapmer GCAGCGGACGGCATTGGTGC (sugars from the 5' end e5 d10 e5, backbone and methylation of C not given here)

>  <Bilirubin [mg/dL]>
0.15

$$$$
>  <SUBSTANCE>
ISIS 416856: MOE gapmer, nucleobases 1275 to 1318 of SEQ ID NO: 1 (Table 8) (antisense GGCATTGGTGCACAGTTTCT; MOE gapmer, wing and gap sizes not given here)

>  <Bilirubin [mg/dL]>
0.13

$$$$
>  <SUBSTANCE>
ISIS 413482: 5-10-5 MOE gapmer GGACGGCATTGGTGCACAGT (sugars from the 5' end e5 d10 e5, backbone and methylation of C not given here)

>  <Bilirubin [mg/dL]>
0.14

$$$$
>  <SUBSTANCE>
ISIS 416863: MOE gapmer, nucleobases 1275 to 1318 of SEQ ID NO: 1 (Table 8) (antisense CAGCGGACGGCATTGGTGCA; MOE gapmer, wing and gap sizes not given here)

>  <Bilirubin [mg/dL]>
0.13

$$$$
>  <SUBSTANCE>
ISIS 416851: MOE gapmer, nucleobases 1275 to 1318 of SEQ ID NO: 1 (Table 8) (antisense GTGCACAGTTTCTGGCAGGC; MOE gapmer, wing and gap sizes not given here)

>  <Bilirubin [mg/dL]>
0.14

$$$$
>  <SUBSTANCE>
ISIS 416859: MOE gapmer, nucleobases 1275 to 1318 of SEQ ID NO: 1 (Table 8) (antisense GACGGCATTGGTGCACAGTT; MOE gapmer, wing and gap sizes not given here)

>  <Bilirubin [mg/dL]>
0.21

$$$$
>  <SUBSTANCE>
ISIS 412223: 5-10-5 MOE gapmer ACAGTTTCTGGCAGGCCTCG (sugars from the 5' end e5 d10 e5, backbone and methylation of C not given here)

>  <Bilirubin [mg/dL]>
0.14

$$$$
>  <SUBSTANCE>
ISIS 416852: MOE gapmer, nucleobases 1275 to 1318 of SEQ ID NO: 1 (Table 8) (antisense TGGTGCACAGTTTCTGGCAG; MOE gapmer, wing and gap sizes not given here)

>  <Bilirubin [mg/dL]>
0.15

$$$$

For the next question, use this substance.
Item under review: ISIS 416848: MOE gapmer, nucleobases 1275 to 1318 of SEQ ID NO: 1 (Table 8) (antisense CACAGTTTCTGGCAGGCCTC; MOE gapmer, wing and gap sizes not given here) . Reported Bilirubin?
0.14
